tested on: α7 integrin (LacZ reporter in α7+/LacZ myotubes); test: Myotube α7 integrin FDG assay (Burkin assay in myotubes, 96-well); type: cell-based, mouse; conditions: myotubes, 5 uM
recorded-metric: Burkin Assay in Myotubes, α7 integrin LacZ reporter signal relative to DMSO
Answer as a number with no unit attached.

See these solved cases before continuing.
INSERT INTO measurements (compound, endpoint_value) VALUES
  ('Cc1ccc(NS(=O)(=O)c2ccc3c(c2)NC(=O)CCS3)c(Br)c1', 1.022),
  ('CC(C(=O)Nc1ccc(C#N)cc1)N(C)CC(=O)Nc1cccc(F)c1 (centres unmarked)', 1.086),
  ('CCOC(=O)c1sc(=N)n(-c2ccc(OC)cc2)c1C', 0.8747);

Consider COc1ccc(Cl)cc1NC(=O)CC(=O)Nc1cc(Cl)ccc1OC . Its measured Burkin Assay in Myotubes, α7 integrin LacZ reporter signal relative to DMSO is 0.8936

Consider COc1ccc(CNC(=O)COC(=O)CCc2c[nH]c3ccccc23)cc1 . Its measured Burkin Assay in Myotubes, α7 integrin LacZ reporter signal relative to DMSO is 1.042

Consider Cc1nc(Nc2ccccc2F)c2oc3ccccc3c2n1 . Its measured Burkin Assay in Myotubes, α7 integrin LacZ reporter signal relative to DMSO is 1.049

Consider Cc1ccc(S(=O)(=O)NC(C)C(=O)NC(C)c2cccs2)cc1 (centres unmarked) . Its measured Burkin Assay in Myotubes, α7 integrin LacZ reporter signal relative to DMSO is 0.9593

Consider Cc1ccsc1CN(C)CC(=O)Nc1ccc([N+](=O)[O-])cc1Cl . Its measured Burkin Assay in Myotubes, α7 integrin LacZ reporter signal relative to DMSO is 0.8513

Consider CC(C)Oc1cccc(C(=O)Nc2ccc(CN3CCOCC3)cc2)c1 . Its measured Burkin Assay in Myotubes, α7 integrin LacZ reporter signal relative to DMSO is 1.178

* * *

// values below are reported CMV-LACZ in Myotubes, signal relative to DMSO
Test system: β-galactosidase in CMV-LacZ C2C12 myotubes
Assay: CMV-LacZ secondary screen in C2C12 myotubes (β-Gal stabilizing assay)
Assay type: cell-based, mouse
Conditions: 0.5 uM; C2C12 CMV-LacZ myotubes; fold relative to DMSO
Description: In order to determine compounds that acted to stabilize β-gal in myogenic cells, a CMV-LacZ C2C12 cell line was used in a secondary screen. The EGFP gene from the pEGFP (Clontech) vector was replaced by LACZ PCR product with digests of the vector/PCR product performed using EcoRI (NEB) and NotI (NEB) and ligated using T4 DNA Ligase (NEB) following standard procedures to produce the CMV-LACZ vector. […]

See these solved cases before continuing.
INSERT INTO results (molecule, system_under_test, endpoint_value) VALUES
  ('O=C(Nc1ccccc1Cl)C1CCCN1C(=O)OCc1ccccc1 (stereo not drawn)', 'β-galactosidase in CMV-LacZ C2C12 myotubes', 0.7844),
  ('O=C(N/N=C/c1c[nH]c2ccccc12)c1cc(Cl)ccc1O', 'β-galactosidase in CMV-LacZ C2C12 myotubes', 0.9632),
  ('COC(=O)Cn1c(=O)c2c(nc3n2CC(C)CN3Cc2ccccc2)n(C)c1=O (stereo not drawn)', 'β-galactosidase in CMV-LacZ C2C12 myotubes', 0.9958),
  ('CC1CC(C)(C)NC(=S)N1CC(=O)N(C)Cc1ccccc1 (stereo not drawn)', 'β-galactosidase in CMV-LacZ C2C12 myotubes', 1.0611),
  ('Cc1cccc(C)c1NCC(=O)N1CCN(Cc2ccccc2)CC1.Cl', 'β-galactosidase in CMV-LacZ C2C12 myotubes', 0.8316),
  ('CC(C(=O)Nc1ccc(C#N)cc1)N(C)CC(=O)Nc1cccc(F)c1 (stereo not drawn)', 'β-galactosidase in CMV-LacZ C2C12 myotubes', 1.1038);

Consider Cc1ccc(NS(=O)(=O)c2cccc(C(=O)O)c2)cc1S(=O)(=O)N1CCOCC1 . Its measured CMV-LACZ in Myotubes, signal relative to DMSO is 0.9358

Consider O=C(c1ccccc1)N1CCN(S(=O)(=O)c2cccs2)CC1 . Its measured CMV-LACZ in Myotubes, signal relative to DMSO is 1.0474

Consider COc1ccccc1NS(=O)(=O)c1cc(NC(=O)c2ccc(Cl)nc2)ccc1N1CCCC1 . Its measured CMV-LACZ in Myotubes, signal relative to DMSO is 1.0819

* * *

system: β-galactosidase in CMV-LacZ C2C12 myotubes; experiment: CMV-LacZ secondary screen in C2C12 myotubes (β-Gal stabilizing assay); format: cell-based, mouse; conditions: 5 uM; C2C12 CMV-LacZ myotubes; fold relative to DMSO
Lab note - cut at 1 for CMV-LACZ in Myotubes, signal relative to DMSO: 1 if strictly below, 0 if not.

Completed entries (count: 4):
INSERT INTO measurements (molecule, class) VALUES
  ('CC(NC(=O)c1cn(C)c2ccc(S(=O)(=O)N3CCCC3)cc2c1=O)c1ccccc1 (centres unmarked)', 0),
  ('Cl.O=C(CN1CCOCC1)NCc1cc([N+](=O)[O-])ccc1O', 1),
  ('O=C(N[C@@H](Cc1c[nH]c2ccccc12)C(=O)O)C1CCN(S(=O)(=O)c2cccs2)CC1', 1),
  ('Cc1ccc(N2C(=O)C3NN=C(C(=O)OCc4ccccc4)C3C2=O)cc1 (centres unmarked)', 1);

Request: Is it true that CMV-LACZ in Myotubes, signal relative to DMSO reported for Cc1cccc(NCC(=O)N/N=C\c2ccccn2)c1 is less than 1?
Result: 0

Request: Is it true that CMV-LACZ in Myotubes, signal relative to DMSO reported for Cc1cccc(NC(=O)c2ccc(N3C(=O)C4CCCCC4C3=O)cc2)c1C (centres unmarked) is less than 1?
Result: 0

Request: Is it true that CMV-LACZ in Myotubes, signal relative to DMSO reported for Cn1cc(CN2CCC(C(=O)Nc3cccc(-c4cscn4)c3)CC2)cn1 is less than 1?
Result: 1

* * *

test system: β-galactosidase in CMV-LacZ C2C12 myoblasts; experiment: CMV-LacZ secondary screen in C2C12 myoblasts (β-Gal stabilizing assay); format: cell-based, mouse; details: 1 uM; CMV-LacZ C2C12 myoblasts
// values below are reported CMV-LACZ in Myoblasts (β-galactosidase activity relative to DMSO)

INSERT INTO results (molecule, endpoint_value) VALUES
  ('NC(=O)c1sc2nc3c(cc2c1N)CCC3', 1.0883);

Consider CCC(C)n1[nH]c(=O)cc1N (stereo not shown) . Its measured CMV-LACZ in Myoblasts (β-galactosidase activity relative to DMSO) is 1.8970

Consider Cn1cc(CN2CCC(C(=O)Nc3cccc(-c4cscn4)c3)CC2)cn1 . Its measured CMV-LACZ in Myoblasts (β-galactosidase activity relative to DMSO) is 1.0321

Consider O=C(NCCc1ccccc1)C1CCC(=O)N1C1CCCC1 (stereo not shown) . Its measured CMV-LACZ in Myoblasts (β-galactosidase activity relative to DMSO) is 0.9783

Consider N#CC1=C2SCN(c3ccccc3)CN2C(=O)CC1c1cccs1 (stereo not shown) . Its measured CMV-LACZ in Myoblasts (β-galactosidase activity relative to DMSO) is 1.4314

Consider CCc1nc2ccccc2c(C(=O)NCc2ccccc2)c1C . Its measured CMV-LACZ in Myoblasts (β-galactosidase activity relative to DMSO) is 1.1579

* * *

// values below are reported CMV-LACZ in Myotubes, signal relative to DMSO
system: β-galactosidase in CMV-LacZ C2C12 myotubes; experiment: CMV-LacZ secondary screen in C2C12 myotubes (β-Gal stabilizing assay); assay type: cell-based, mouse; conditions: 10 uM; C2C12 CMV-LacZ myotubes; fold relative to DMSO
Answer as a number with no unit attached.

See these solved cases before continuing.
INSERT INTO results (molecule, endpoint_value) VALUES
  ('CCCCN1CC(=O)N2Cc3[nH]c4ccccc4c3C[C@H]2C1=O', 1.1758),
  ('O=C1CCc2cc(S(=O)(=O)Nc3ccc(C(F)(F)F)cc3)cc3c2N1CC3', 0.7569),
  ('CSc1ccc(S(=O)(=O)NCc2ccccc2)cc1', 0.8917),
  ('COc1ccccc1C(=O)Nc1ccnn1C1CCN(C(=O)c2ccoc2)CC1', 0.9776);

Consider Cn1c(-c2ccccc2)cc2ccccc21 . Its measured CMV-LACZ in Myotubes, signal relative to DMSO is 0.8583

Consider COc1cccc(C(=O)COc2ccc3ccc(=O)oc3c2)c1 . Its measured CMV-LACZ in Myotubes, signal relative to DMSO is 1.0091

Consider Cc1cccc2c(N=Nc3ccc(S(=O)(=O)Nc4ccc(Cl)cc4)cc3[N+](=O)[O-])c(O)[nH]c12 . Its measured CMV-LACZ in Myotubes, signal relative to DMSO is 1.0049
